Tested on: SNB-75 CNS
TEST DETAILS: NCI tumour cell line growth inhibition, 48 h
Exercise: state measured TGI for each of the molecules provided.
One number for each entry, in µM.

SMILES REPRESENTATION: O=C(NNS(=O)(=O)c1ccc(Br)cc1)c1ccc(Cl)cc1NC(=O)C12CC3CC(CC(C3)C1)C2
EXPERIMENTAL ENDPOINT: TGI
MEASUREMENT UNIT: µM
QUANTITATIVE READOUT: 28

Could you now look at the following molecule, please?
**Q:** # TGI lookup, item C[N+](C)=c1ccc2nc3c(ccc4ccccc43)oc-2c1
**A:** 32.5

====

Exercise: state measured TGI for each of the molecules provided.
Tested on: SK-MEL-5 melanoma
TEST DETAILS: NCI tumour cell line growth inhibition, 48 h

Field: example entries. Status: answers known.
MOLECULE: CC(N)Cc1ccc(Cl)cc1 (stereo not drawn)
RESULT: > 100 µM

MOLECULE: COc1ccc(OC)c(NC2=NCCO2)c1
RESULT: > 100 µM

MOLECULE: CCNC(=O)NNc1ncnc2c1c(-c1ccc(Cl)cc1)cn2-c1ccc(C)cc1
RESULT: 28 µM

MOLECULE: CO[C@H]1CC[C@]2(C)C3=CC[C@@]4(C)C(CC[C@@H]4C(C)CC[C@@H](C)C(C)C)C(=CCC2C1)O3 (stereo partly drawn)
RESULT: > 25 µM

MOLECULE: O=C(OCC1CCCN2CCCCC12)c1cccnc1 (stereo not drawn)
RESULT: > 100 µM

MOLECULE: C=CC(C)(C)C1(CC(OC)OC)C(=O)N(C)c2ccccc21 (stereo not drawn)
RESULT: > 25 µM

Hi! Can you tell me TGI for each of these molecules?
1. CCCCCCCCCCCCCCCCNCC(O)CN (stereo not drawn)
2. COC1=CC(=O)c2c(cc(COP(N)(=O)N(CCCl)CCCl)n2C)C1=O (stereo not drawn)
3. CN(C)C(=S)/N=c1\ssc(=S)n1Cc1cccs1
4. Cn1c(=O)c2c(nc3n2CCC(=O)N3CCCCl)n(C)c1=O

**A:**
["27 µM", "2.82 µM", "> 16.1 µM", "> 100 µM"]

====

Test system: OVCAR-4 ovarian
TEST DETAILS: NCI tumour cell line growth inhibition, 48 h
EXPERIMENTAL ENDPOINT: GI50

Field: example entries. Status: answers known.
SMILES REPRESENTATION: C[C@]12CC[C@@H]3c4ccc(O)cc4CC[C@H]3[C@@H]1CC[C@@H]2NS(=O)(=O)c1cccc(Cl)c1
GI50: 2.2 µM
//
SMILES REPRESENTATION: COc1cccc(OC(=O)c2ccc(C(F)(F)F)nc2Nc2c(C)cccc2Cl)c1
GI50: 13.8 µM
//
SMILES REPRESENTATION: COc1cccc(Sc2ccc([N+](=O)[O-])c3no[n+]([O-])c23)c1
GI50: 10.1 µM
//
SMILES REPRESENTATION: Nc1ncnc2c1c(-c1ccc(Oc3ccccc3)cc1)nn2C[C@H]1SSC[C@@H]1O
GI50: 1.44 µM

Could you now look at the following molecule, please?
**Q:** # GI50 lookup, item C=C(C)[C@@H]1C/C=C(/CO)CC[C@H]2O[C@]2(C)CC/C=C(\C)CC1
**A:** 16.3 µM

====

Tested on: HCC-2998 colon
TEST DETAILS: NCI tumour cell line growth inhibition, 48 h
Exercise: state measured TGI for each of the molecules provided.

MOLECULE: O=C(/C=C/c1ccc2c(c1)OCO2)NCCc1ccco1
TGI: > 100 µM

Hi! Can you tell me TGI for each of these molecules?
1. CC(=O)OC12CC(C(F)(F)F)(C(F)(F)F)OC1(OC(C)=O)CC(C(F)(F)F)(C(F)(F)F)O2 (stereo not given)
2. c1cc(CN2CCCNCCNCCCNCC2)ccc1CN1CCCNCCNCCCNCC1
3. Nc1ncn(C2OC(COP(=O)(O)O)C(O)C2O)c(=O)n1 (stereo not given)
4. C[N+](C)(C)CCOC(=O)/C=C/c1cnc[nH]1

**A:**
1: > 100 µM; 2: > 100 µM; 3: > 100 µM; 4: > 500 µM

====

Exercise: state measured TGI for each of the compounds provided.
Test system: SF-268 CNS
TEST DETAILS: NCI tumour cell line growth inhibition, 48 h

Hi! Can you tell me TGI for each of these compounds?
1. O=S(c1ccccc1)C1CC2CC3(CCC21O)OCCO3 (centres undefined)
2. Cc1cc2c(c3nocc13)C(=O)c1ccccc1C2=O
3. COc1ccc(OC)c(NC(=O)c2cccc(NC3=C(Cl)C(=O)N(Cc4ccccc4)C3=O)c2)c1
4. COc1cccc(Sc2ccc([N+](=O)[O-])c3no[n+]([O-])c23)c1
5. N#C/C=c1/c2ccccc2n2nc3ccccc3c12
6. O=P(O)(O)OCC1OC(n2cnc3c(NCc4ccco4)ncnc32)C(O)C1O (centres undefined)
7. CC1(C)OC2CC3COC(=O)C3CC2O1 (centres undefined)
8. COc1cc2c(c(O)c1C)C(=O)CC(c1ccccc1)O2 (centres undefined)

**A:**
> 100 µM
> 100 µM
> 100 µM
30 µM
34 µM
> 79.6 µM
> 100 µM
> 100 µM

**Q:** # TGI lookup, item O=C1OCC(c2ccc(O)cc2)=C1c1cc(O)c(O)c(O)c1
**A:** > 100 µM

====

System: DU-145 prostate
TEST DETAILS: NCI tumour cell line growth inhibition, 48 h
EXPERIMENTAL ENDPOINT: TGI

Field: example entries. Status: answers known.
COMPOUND: C/C(=N\NC(=O)CC#N)C(CN1CCCCC1)C(c1ccccc1)c1c(O)c2ccccc2oc1=O (stereo not given)
MEASURED ON: DU-145 prostate
RESULT: > 100 µM

COMPOUND: O=C(/C=C/c1ccc(OCc2ccccc2)cc1)NCc1ccc(C(=O)NCc2ccccc2)cc1
MEASURED ON: DU-145 prostate
RESULT: > 100 µM

COMPOUND: NC(=S)Nc1ccc2c(c1)oc1ccccc12
MEASURED ON: DU-145 prostate
RESULT: > 100 µM

COMPOUND: COC(=O)CCCC1(CCCC(=O)OC)CCCCCCCCC(CCCC(=O)OC)(CCCC(=O)OC)C(=O)C1=O
MEASURED ON: DU-145 prostate
RESULT: > 100 µM

COMPOUND: Clc1ccc2nc3n[nH]c(Cl)c3nc2c1
MEASURED ON: DU-145 prostate
RESULT: > 100 µM

COMPOUND: O=C1CSC(c2ccc(-c3nc4ccccc4[nH]3)cc2)=N1
MEASURED ON: DU-145 prostate
RESULT: > 50 µM

COMPOUND: O=C(O)C1CCN(Cc2oc(CO)cc(=O)c2O)C1 (stereo not given)
MEASURED ON: DU-145 prostate
RESULT: > 100 µM

COMPOUND: O=C(O)CNc1ccc(Cl)c(Cl)c1
MEASURED ON: DU-145 prostate
RESULT: > 100 µM

COMPOUND: CCN1C(=O)N(CC)C2C1NN=c1s/c(=C\c3cccs3)c(=O)n12 (stereo not given)
MEASURED ON: DU-145 prostate
RESULT: > 29.9 µM

**Q:** # TGI lookup, item CN(C)C(=S)/N=c1\ssc(=S)n1Cc1cccs1
**A:** > 100 µM

====

Tested on: ACHN renal
TEST DETAILS: NCI tumour cell line growth inhibition, 48 h
Exercise: state measured TGI for each of the compounds provided.

Field: example entries. Status: answers known.
COMPOUND: O=c1c(Nc2ccccc2)cn(CCOc2ccc(Cl)cc2)c(=O)n1CCOc1ccc(Cl)cc1
RESULT: > 100 µM

COMPOUND: O=C(N/N=C\c1cccs1)c1ccncc1
RESULT: > 100 µM

COMPOUND: c1ccc2[nH]c3c(N=NC4=NCCN4)c4ccccc4c-3nc2c1
RESULT: > 100 µM

COMPOUND: Cc1c(N)nc([C@H](CC(N)=O)NC[C@H](N)C(N)=O)nc1C(=O)N[C@H](C(=O)N[C@H](C)[C@@H](O)CC(=O)N[C@H](C(=O)NC(O[C@@H]1O[C@@H](C)[C@@H](N)[C@@H](O)[C@H]1O)C(O)c1nc(-c2nc(C(=O)NCCCCN)cs2)cs1)[C@@H](C)O)[C@@H](O[C@@H]1O[C@@H](CO)[C@@H](O)[C@H](O)[C@@H]1O[C@H]1O[C@H](CO)[C@@H](O)[C@H](OC(N)=O)[C@@H]1O)c1c[nH]cn1 (stereo partly drawn)
RESULT: > 50 µM

COMPOUND: O=C1CSC(c2ccc(-c3nc4ccccc4[nH]3)cc2)=N1
RESULT: > 50 µM

Hi! Can you tell me TGI for each of these compounds?
1. Fc1ccc2[nH]cc(-c3nc(-c4c[nH]c5ccncc45)cs3)c2c1
2. CSC(=Nc1ccccc1Cl)NC(=O)c1ccc(Br)cc1
3. CCOc1cc(C(=O)O)c2c(ccc3ccc(OC)c(OC)c32)c1OC

**A:**
2.97 µM
> 100 µM
> 100 µM
